- Tested on: Staphylococcus aureus
- ASSAY_PROCEDURE: The antibacterial activity was evaluated as minimal inhibitory concentration (MIC) against Staphylococcus aureus Smith
- Type: functional
ATTRIBUTE_MEASURED: MIC (µg/mL)
Give the number; µg/mL is assumed, so skip it.

Ask: May I ask what MIC has been recorded for COC(=O)[C@H]1NC(=O)C2NC(=O)[C@H](NC(=O)[C@@H]3NC(=O)[C@H]4NC(=O)[C@H](NC(=O)[C@@H](N)c5ccc(O)c(c5)Oc5cc4cc(O)c5C)[C@H](O)c4ccc(cc4)Oc4cc3cc(c4O)Oc3ccc(cc3)C2O)c2ccc(O)c(c2)-c2c(O)cc(O)cc21 (stereo partly specified) ?
Reply: 3.1

Ask: Further, for COC(=O)[C@H]1NC(=O)C2NC(=O)[C@H](NC(=O)[C@@H]3NC(=O)[C@H]4NC(=O)[C@H](NC(=O)C(=O)c5ccc(O)c(c5)Oc5cc4cc(O)c5C)[C@H](O)c4ccc(cc4)Oc4cc3cc(c4O)Oc3ccc(cc3)C2O)c2ccc(O)c(c2)-c2c(O)cc(O)cc21 (stereo partly specified) ?
Reply: 6.2

Ask: Further, for COC(=O)[C@H]1NC(=O)C2NC(=O)[C@H](NC(=O)[C@@H]3NC(=O)[C@H]4NC(=O)[C@H](NC(=O)[C@@H](NC(C)=O)c5ccc(O)c(c5)Oc5cc4cc(O)c5C)[C@H](O)c4ccc(cc4)Oc4cc3cc(c4O)Oc3ccc(cc3)C2O)c2ccc(O)c(c2)-c2c(O)cc(O)cc21 (stereo partly specified) ?
Reply: 6.2

Ask: Further, for COC(=O)[C@H]1NC(=O)C2NC(=O)[C@H](NC(=O)[C@@H]3NC(=O)[C@H]4NC(=O)[C@H](NC(=O)[C@H](N)c5ccc(O)c(c5)Oc5cc4cc(O)c5C)[C@H](O)c4ccc(cc4)Oc4cc3cc(c4O)Oc3ccc(cc3)C2O)c2ccc(O)c(c2)-c2c(O)cc(O)cc21 (stereo partly specified) ?
Reply: 25

Ask: Further, for COC(=O)[C@H]1NC(=O)C2NC(=O)[C@H](NC(=O)[C@@H]3NC(=O)[C@H]4NC(=O)[C@H](NC(=O)[C@H](O)c5ccc(O)c(c5)Oc5cc4cc(O)c5C)[C@H](O)c4ccc(cc4)Oc4cc3cc(c4O)Oc3ccc(cc3)C2O)c2ccc(O)c(c2)-c2c(O)cc(O)cc21 (stereo partly specified) ?
Reply: 12.5

Ask: Further, for COC(=O)[C@H]1NC(=O)C2NC(=O)[C@H](NC(=O)[C@@H]3NC(=O)[C@H]4NC(=O)[C@H](NC(=O)/C(=N/O)c5ccc(O)c(c5)Oc5cc4cc(O)c5C)[C@H](O)c4ccc(cc4)Oc4cc3cc(c4O)Oc3ccc(cc3)C2O)c2ccc(O)c(c2)-c2c(O)cc(O)cc21 (stereo partly specified) ?
Reply: 3.1

###

- ASSAY_PROCEDURE: Association constant was evaluated towards synthetic peptidoglycan analogue Ac2-Lys-D-Ala-D-Ala
- Assay type: ADME
ATTRIBUTE_MEASURED: K A (M⁻¹)
Give the number; M⁻¹ is assumed, so skip it.

COC(=O)[C@H]1NC(=O)C2NC(=O)[C@H](NC(=O)[C@@H]3NC(=O)[C@H]4NC(=O)[C@H](NC(=O)/C(=N/O)c5ccc(O)c(c5)Oc5cc4cc(O)c5C)[C@H](O)c4ccc(cc4)Oc4cc3cc(c4O)Oc3ccc(cc3)C2O)c2ccc(O)c(c2)-c2c(O)cc(O)cc21 (some centres undefined)    960000
COC(=O)[C@H]1NC(=O)C2NC(=O)[C@H](NC(=O)[C@@H]3NC(=O)[C@H]4NC(=O)[C@H](NC(=O)[C@H](N)c5ccc(O)c(c5)Oc5cc4cc(O)c5C)[C@H](O)c4ccc(cc4)Oc4cc3cc(c4O)Oc3ccc(cc3)C2O)c2ccc(O)c(c2)-c2c(O)cc(O)cc21 (some centres undefined)    20000
COC(=O)[C@H]1NC(=O)C2NC(=O)[C@H](NC(=O)[C@@H]3NC(=O)[C@H]4NC(=O)[C@H](NC(=O)C(=O)c5ccc(O)c(c5)Oc5cc4cc(O)c5C)[C@H](O)c4ccc(cc4)Oc4cc3cc(c4O)Oc3ccc(cc3)C2O)c2ccc(O)c(c2)-c2c(O)cc(O)cc21 (some centres undefined)    560000

Ask: May I ask what K A has been recorded for COC(=O)[C@H]1NC(=O)C2NC(=O)[C@H](NC(=O)[C@@H]3NC(=O)[C@H]4NC(=O)[C@H](NC(=O)[C@@H](NC(C)=O)c5ccc(O)c(c5)Oc5cc4cc(O)c5C)[C@H](O)c4ccc(cc4)Oc4cc3cc(c4O)Oc3ccc(cc3)C2O)c2ccc(O)c(c2)-c2c(O)cc(O)cc21 (some centres undefined) ?
Reply: 140000

###

- ASSAY_PROCEDURE: Association constant was evaluated towards synthetic peptidoglycan analogue Ac2-Lys-D-Ala-D-Ala
- Assay type: ADME
ATTRIBUTE_MEASURED: K A (M⁻¹)
Give the number; M⁻¹ is assumed, so skip it.

COC(=O)[C@H]1NC(=O)C2NC(=O)[C@H](NC(=O)[C@@H]3NC(=O)[C@H]4NC(=O)[C@H](NC(=O)[C@H](O)c5ccc(O)c(c5)Oc5cc4cc(O)c5C)[C@H](O)c4ccc(cc4)Oc4cc3cc(c4O)Oc3ccc(cc3)C2O)c2ccc(O)c(c2)-c2c(O)cc(O)cc21 (some centres not stated)    150000

// switching to the query compound
Ask: May I ask what K A has been recorded for COC(=O)[C@H]1NC(=O)C2NC(=O)[C@H](NC(=O)[C@@H]3NC(=O)[C@H]4NC(=O)[C@H](NC(=O)[C@@H](N)c5ccc(O)c(c5)Oc5cc4cc(O)c5C)[C@H](O)c4ccc(cc4)Oc4cc3cc(c4O)Oc3ccc(cc3)C2O)c2ccc(O)c(c2)-c2c(O)cc(O)cc21 (some centres not stated) ?
Reply: 670000

// provenance: ChEMBL document CHEMBL1123055
